run_description: purified protein yield per well (BCA); higher = higher soluble expression
measure_name: purified protein yield per well

query_sequence: YNPPPPPPDPGPGPGQPSDGFERGPNPSVSFLEASRGPFSIRETRVSGTVRGFGGGTIYYPTGTSGTMGAIVVIPGFVSPESSIAWWGPKLASHGFVVMTIATNSGYDQPRSRATQINSALDYLIDQNSDSRSPVRNMIDTDRLGVMGWSMGGGGTLRVASQNRLKAAVGLAPYDTISFRNVDAPTMILACESDTIAPVRNHASPFYNEIPFNTDKAFFEINGGSHTCANGGNRFNETLSRLGVSWMKR [ESM179]
purified protein yield per well: < 25 µg

query_sequence: ATASFQRGPAPSAASIRATDGPFAITRTNVARAAVSGFGGGDIYAPDDTSQGTFGAVAIAPGFTATRSSMAWLAPRIASQGFVVFNIDTLTTSDQPATRGRELLAALDFLTAQSTARAKIDKNRLAVMGHSMGGGGTLEAAKSRPALKAAVPLTPWDLTKNFAGVTVPTMIIGAQSDTIAPVRQHSERFFASLPSGADTGYLELAGASHFAPNIPNTTIASTSVAWLKRFVDEDTRFEQFLCPGPATGATVSEYETNCPHQG [DP071]
purified protein yield per well: < 25 µg

Pending sequence:
## Task Request the reported purified protein yield per well associated with APAHHAAPAHAAAHHHAPFAVRATVVPKTAVKAFGGGVIYTPQDTGKPVLGAVVITPGFTNTNADEKQLGELVASQGFVAFVIDTLDTGDLPDQRATEILAAADYLTGQSAVRSEVSAKDVGLIGYSFGGGGTMQAAQARPSIKAAIGLMPFDFPPASDPDAQYPAYPKLTTPTLVITGQKDDVADPADFGKPAYDSIPAGTPKQYLELKGLDHYAGEHAPVAAIRNAVTAFLKRYLDGNSAYAKFICPAPKVGGPITASYSSCPKG [ESM112]
## Result < 25 µg

====

run_description: PET hydrolysis, aromatic products released after 48 h (umol product/mg enzyme); higher = more PET depolymerization activity
applied_conditions: substrate: cryPow; 40 °C; pH 4.5
measure_name: PET hydrolysis

query_sequence: DEIGQAPTAGNITGNGSFTTTSESISSLVSGFGGGRVYYPTTAGKYPVVAISPGFTATWSSLSWIGPRLSSWGFVVVGIETNSIYDQPASRGSQLLAALNWAVNSSSSAVRARVDGSRRGVAGHSMGGGGTLEALAADTTGLVKAGVPIAPWNSDKTWNNVSEPVMIVGGQSDTVAPVASHSIPFYNTLAGPKGYVELTGASHFFPQSTNATLSRALVAWFKRWLNQDSRFTPYTCGFSGLAVSDFRSNAC [ESM090]
measure_name: PET hydrolysis
result: < 3
--
query_sequence: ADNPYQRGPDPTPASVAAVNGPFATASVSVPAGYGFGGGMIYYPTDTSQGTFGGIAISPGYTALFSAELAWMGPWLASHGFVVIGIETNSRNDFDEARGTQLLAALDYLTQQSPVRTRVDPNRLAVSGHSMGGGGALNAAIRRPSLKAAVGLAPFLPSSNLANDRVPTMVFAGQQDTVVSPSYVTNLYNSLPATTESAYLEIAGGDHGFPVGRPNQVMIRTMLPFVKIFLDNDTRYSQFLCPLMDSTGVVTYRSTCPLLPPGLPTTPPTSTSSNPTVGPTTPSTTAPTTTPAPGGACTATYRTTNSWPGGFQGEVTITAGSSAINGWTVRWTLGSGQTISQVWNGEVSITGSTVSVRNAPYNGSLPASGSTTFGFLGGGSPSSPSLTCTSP [TEP165]
measure_name: PET hydrolysis
result: 4.5
--
query_sequence: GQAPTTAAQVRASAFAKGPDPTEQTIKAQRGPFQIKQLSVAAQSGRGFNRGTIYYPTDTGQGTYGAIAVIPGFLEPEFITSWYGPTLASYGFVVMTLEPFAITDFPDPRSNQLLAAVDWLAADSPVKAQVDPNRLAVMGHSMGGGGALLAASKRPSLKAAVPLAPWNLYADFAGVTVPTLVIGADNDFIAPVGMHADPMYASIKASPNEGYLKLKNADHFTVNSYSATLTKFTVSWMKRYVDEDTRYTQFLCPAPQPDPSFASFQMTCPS [TEP173]
measure_name: PET hydrolysis
result: < 3
--
query_sequence: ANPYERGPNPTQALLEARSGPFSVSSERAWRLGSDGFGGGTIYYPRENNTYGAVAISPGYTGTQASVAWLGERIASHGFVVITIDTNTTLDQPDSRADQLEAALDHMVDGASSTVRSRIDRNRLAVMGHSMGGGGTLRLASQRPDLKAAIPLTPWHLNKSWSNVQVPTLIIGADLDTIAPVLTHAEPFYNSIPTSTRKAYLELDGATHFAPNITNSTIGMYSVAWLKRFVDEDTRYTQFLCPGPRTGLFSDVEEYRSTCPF [TEP014]
measure_name: PET hydrolysis
result: < 3

Next item in the queue.
## Task Can you share its PET hydrolysis? I mean this sequence: ADNPYQRGPEPTTSSVAATRGTFATAEVSVSKGNGFGGGKIYYPTDTSKGTFGAIAVVPGYTATWAAEGAWMGPWLASFGFVVIGIDTNSRTDYDTARGTQLLAALDYLTQKSSVRSRVDVKRLSVMGHSMGGGGAMYAALHRPSLWAAVGNAPFSPSQNLKSDRVPTLLLAGQKDTTVTPSSVVGLYNGIPAATEKGYLELTGAAHNFPTRSNSVMMRKVVPWLKIFVDHDTRYGQFLCPSLKDTTGITSYRSTCPLTTAGQ [ESM078]
## Result < 3

====

run_description: purified protein yield per well (BCA); higher = higher soluble expression
Hi there, I'd appreciate the recorded purified protein yield per well for every entry that follows.

query_sequence: ADNPHERGPDPTESSIEALRGSYAVSERSVSRWVSGFGGGTIYYPTTTSDGDFGAVVISPGYTGTESTVAWLGPRLASQGFVVLTMATNSIYDQPDSRARQLQAALDYLTASSPVADRIDADRLALMGHSMGGGGTLRAVDDNPDIKAAIPMTPWHPQKDWSSVSTPTLIFAAENDSVARHETHAEPFYESFEQDLPKAYLELDGASHFAPNTSNTTIAKYSISWLKRFVDDDTRYTPFLCPGPSTGWLSDVEKYESSCPF [DP076]
purified protein yield per well: < 25 µg
//
query_sequence: AIEHRRGPAPSEQSVLAANGPFSHSTFAVSDAASAKFGKGTIYYPNDTSQGTFGGVAISPGYTSTEPHIAWLGTRLAAHGFVTITITTNSLYDNPTERGQQLLAALDYLANNAPLAIRQRLDTSRMGVVGHSMGGGGSLYAVWNRPALKAAVPLAPYHTIKNWSGIKTPTMIIGGSADGVAPVEEHSERFYSSMTYARERAYAELEGANHSGSFLFEDHPIIGKFTVAWLKRFIDGDTRYDQFLCPPPTGAYLTEYRASCPHA [DP006]
purified protein yield per well: 28 µg
//
query_sequence: ASPYERGPNPTAASVSATTGPFAIASVSVARGNGFGGGVIYYPTATNQGTFGGIAISPGLNGTWAGIAWLGPRLASQGFVVFGIETNNLNDSPTSRGTQLLAALDYLTQRSTVRTRVDAGRLAVMGHSMGGGGALDAALRRPSLQAAIGNAPHLPSGTLSNDRVPTMIYAMQNDTLVPPSRLTTLYNSIPATTERGYILVTGAGHNYIGQPSTTLARTMIPWFKIFIDDDTRYSQFLCPMSNQSGISQYRNSCPLS [ESM160]
purified protein yield per well: 400 µg
//
query_sequence: ADSPYQRGPDPTPASVAATRGPFATTQATVPAGNGFNGGYVYYPTDTSQGTWGAVAIVPGYSALFANEEAWMGPWLASFGFVVIGIETNSRTDGADARATQLLAALDYLTRTSPIRDRVDANRLGVMGHSAGGAGTLLAALRRPTLKTAVGLAPGTPGNNLNMSTTQVPTMLLSGQNDGTVTPTYVQGIYNTLPAGVEHAWAELAGNDHLSFTRSNPTEMRLLIPWLKTFLDNDTRYTQFLCPLANSTGVSRYNATCPLVPPDGPTSPPTTTPPTSAPPTTSAPTTPPPSGATCTATYRTVNSWSGGFQGEVTVTAGAAALNGWTVRWESNNGQSISQVWNGTLSTSGSTATVRNVSYNGSLAAGATTTFGFLSSGTPAATSPTCASP [ESM051]
purified protein yield per well: 27.3 µg
//
query_sequence: DEIGQAPTSSNITGNGSFSVSTYNISSLVSGFGGGVAYYPTTSGRYPVVAVSPGFTARWSSISWIGPRLASWGFVVVGIETNGLYDQPASRGSQLLAALNWAVNSAPSAITSRADGSRRGVAGHSMGGGGTLEALAADTTGNVKAGVPIAPWNSDKTWSGINEAVQIVGGESDTIASVGSHSIPFYNSVSGPKSYVELNGASHFFPQSTNSTLSRALVSWFKRYLNQDARFTPFTCGYGGTAVSDFRTNAC [ESM151]
purified protein yield per well: < 25 µg

Quick request: purified protein yield per well for each listed item, please.
1. AAGYERGPNPTSSALEATRGPFSVASTNVSSLSASGFGGGTIYYPTDTSQGTFGGVVIAPGYTASKSSMAWLAERLASHGFVVFNIDTITRSDQPDSRGRQILAAADHLAEESSSTVRRRLDASRIGVMGHSMGGGGTLAAADSRPSLKAAVPLTPWHLDKSWGNVRVPTMIIGAENDTIAAVGSHSEPFYNSLSAAPEKAYLELNGASHFAPNSDNDTIAKYGISWMKRFVDEDTRYDQFLCPAPGRSTTIEEYRSSCPHS [DP086]
2. QTNPYARGPNPTDSLLEASRGPFSISSFTVSRPSGYGAGTVYYPTNAGGTVGAIAIVPGYTARQSSINWWGPRLASHGFVVITIDTNSTLDQPSSRSRQQMAALSQVVSLSRTSTSPIYNKVDASRLGVMGWSMGGGGSLISARDNPSIKAAAPQAPWNTSSNFSSMTVPTLIFACENDSIASTSSHASPMYNSMRLNPRQYFEINNGSHSCANSGNSNQALIGKRGVAWMKRFMDNDTRYTSFACSNPNTFSVSEFRTANCS [ESM180]
3. VEIGPNPTSTLLNGNGPFSVSSSSVSSWVSGFGGGTIYYPTASGQYGVIAVCPGYTGTSSSISWFARRLATHGFVTIAMNTNSRFDFPDSRATQLAAALNYLLNSSSSTIRSRIRTADRGVAGHSMGGGGTLRASERDSNLKVGIPLTPWHTDKTWGSLSVPQMIFGADGDTVAPASSHARTFYNSIPSSTKKAYALLNNASHFTPNSTDERIGRYGVAFAKRFVDGDTRYEPFLCGAEHSTYATSWKFDTYLSTCPYGGGSEPEPDYPWWYWWR [ESM162]
4. YYPTSTSDGTFGAVVVTPGFTATESSMAWLGPRLASQGFVVFTIDTLTTLDQPDSRGRQMLAALDYLTERSSARTRIDGTRLGVIGHSMGGGGTLEAAKSRPSLKAAIPLTPWNLDKTWPEVTTPTLVVGADGDTVAPVATHAKPFYSSLPSSTDRAYLELNNATHFAPN [TEP120]
5. QTSAPTSSSLNATSGYLSVASENVSSLSASGFGGGTIYYPSTSGQYGLIAISPGFTATESSVAWIGRKLASHGFVAIVINTNTTLDQPASRARQLRAALDHARLRASSTVRSRIDASRQAVAGHSMGGGGSLIAAEDDPTLKASFPLTPWNTTTSFTNVRVPTMIFGADGDTIAAVAAHARPFYASIPSSTKKAYAELNGATHFTPNSRNEAIGRYGVAWMKRFMDNDTRYSTFLCGSEHNSYNTSLRFDRYNSNCPY [ESM123]
6. ATTAAAPAAAVRADSPYQRGPAPTEASVTAARGPFAIAQVTVPAGSGTGFNKGTIYYPTDTGQGTFGGVAVMPGFTSPQSVIQWLGPRLASQGFLVFTLDSLSLVDFPTARSQQLLAALDYLATRSTVRTRLDPNRLAVMGHSMGGGASLWAAQNRPSLKASVPLAPWETDTTWQGVRVPTMIIGGQADTVAPPATMAIPDYTSMTSAPEKAYLELRNGGHGAPATESPTVAKYALSWLKRFVDLDTRYDQFLCPAPAPTTAISQYRDTCPNG [DP058]

## Result
1. 90 µg
2. < 25 µg
3. 31.8 µg
4. < 25 µg
5. < 25 µg
6. 52 µg
